koff values, listed per item
- TARGET_DESC: T1, recombinant ICAM-1 Fc chimera (UniProt P05362 28-480, limits assumed)
- T1 construct: amine-coupled to the BIAcore chip; not shown: Fc part, not described
- PROTOCOL_DETAILS: BIAcore; dissociation phase, 1:1 model
# value in s⁻¹; strip the unit string

Solved cases (5 shown):
recombinant soluble αL I-domain K160C/F299C (locked open, intermediate affinity) (receptor) GNVDLVFLFDGSMSLQPDEFQKILDFMKDVMKCLSNTSYQFAAVQFSTSYKTEFDFSDYVKRKDPDALLKHVKHMLLLTNTFGAINYVATEVFREELGARPDATKVLIIITDGEATDSGNIDAAKDIIRYIIGIGKHFQTKESQETLHKFASKPASEFVKILDTFEKLKDLCTELQKKIY
0.67
recombinant soluble αL I-domain E284C/E301C (locked open) (receptor) GNVDLVFLFDGSMSLQPDEFQKILDFMKDVMKKLSNTSYQFAAVQFSTSYKTEFDFSDYVKRKDPDALLKHVKHMLLLTNTFGAINYVATEVFREELGARPDATKVLIIITDGEATDSGNIDAAKDIIRYIIGIGKHFQTKESQETLHKFASKPASCFVKILDTFEKLKDLFTCLQKKIY
0.0459
recombinant soluble αL I-domain L289C/K294C (locked closed) (receptor) GNVDLVFLFDGSMSLQPDEFQKILDFMKDVMKKLSNTSYQFAAVQFSTSYKTEFDFSDYVKRKDPDALLKHVKHMLLLTNTFGAINYVATEVFREELGARPDATKVLIIITDGEATDSGNIDAAKDIIRYIIGIGKHFQTKESQETLHKFASKPASEFVKICDTFECLKDLFTELQKKIY
2.84
recombinant soluble αL I-domain L161C/F299C (locked open, intermediate affinity) (receptor) GNVDLVFLFDGSMSLQPDEFQKILDFMKDVMKKCSNTSYQFAAVQFSTSYKTEFDFSDYVKRKDPDALLKHVKHMLLLTNTFGAINYVATEVFREELGARPDATKVLIIITDGEATDSGNIDAAKDIIRYIIGIGKHFQTKESQETLHKFASKPASEFVKILDTFEKLKDLCTELQKKIY
0.513
recombinant soluble αL I-domain stabilized in the open conformation (K287C/K294C), G128-Y307, E. coli (receptor, introduced disulfide C287-C294, numbers as printed, probably mature αL numbering; also called open I-domain; soluble open I-domain) GNVDLVFLFDGSMSLQPDEFQKILDFMKDVMKKLSNTSYQFAAVQFSTSYKTEFDFSDYVKRKDPDALLKHVKHMLLLTNTFGAINYVATEVFREELGARPDATKVLIIITDGEATDSGNIDAAKDIIRYIIGIGKHFQTKESQETLHKFASKPASEFVCILDTFECLKDLFTELQKKIY
0.023

Consider the record given below.
Tell me its koff given recombinant soluble αL I-domain L161C/T300C (locked open, intermediate affinity) (receptor) GNVDLVFLFDGSMSLQPDEFQKILDFMKDVMKKCSNTSYQFAAVQFSTSYKTEFDFSDYVKRKDPDALLKHVKHMLLLTNTFGAINYVATEVFREELGARPDATKVLIIITDGEATDSGNIDAAKDIIRYIIGIGKHFQTKESQETLHKFASKPASEFVKILDTFEKLKDLFCELQKKIY as the entry.
0.65
